Reference for the values: patent US20240408169A1

System: NCI-H1048 cells
Assay procedure: MTT proliferation assay, NCI-H1048;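 also: Dose-response in 96-well plates over 8 or 10 concentration points, with exposure spanning 3-4 cell doublings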
Type: cell-based
Conditions: 5 days compound exposure, 1:3 serial dilution starting at 10 μM
*1 amine or outer side, *2 acyl side, *3 side chain or, on linkers, in order; H or OH if unused. Where a SMILES comes first, the peptide text is derived from it. Bridges are numbered along the chain shown (N, C = ends). [ ]: non-standard residue; d: D form. The star is where a group is joined. X10 = CC(C)C(=O)N1[C@H]2COC[C@@H]1C=C(c1ccc(Cl)cc1C[C@@H](C(=O)[*:2])N(C)[*:1])C2; X74 = C[C@@H]1CN(c2ccc(-c3ccc(Cl)cc3C[C@@H](C(=O)[*:2])N(C)[*:1])cc2)C[C@@H](C)O1; X39 = CN1CCC(n2cc(-c3ccc(-c4ccc(Cl)cc4C[C@@H](C(=O)[*:2])N(C)[*:1])cc3)cn2)CC1; NMePhe(2-(4-MorPh),5-Cl) = CN[C@@H](Cc1cc(Cl)ccc1-c1ccc(N2CCOCC2)cc1)C(=O)O; X150 = CC(C)C(=O)N1C2C=C(c3ccc(F)cc3C[C@@H](C(=O)[*:2])N(C)[*:1])CC1CC2; NMehhhLys(Me) = CN([C@@H](CCCCCCCN(C)[*:3])C(=O)[*:2])[*:1]; X22 = CN([C@@H](Cc1cc(Cl)ccc1-c1cnn(C)c1)C(=O)[*:2])[*:1]; NMe(hhhLys) = CN([C@@H](CCCCCCCN[*:3])C(=O)[*:2])[*:1]; X33 = CN([C@@H](Cc1cc(Cl)cc2c1OCCO2)C(=O)[*:2])[*:1]; cBuCO(3,3-F2-1-CF3) = O=C(C1(C(F)(F)F)CC(F)(F)C1)*; Pro(trans-4-F) = O=C(O)[C@@H]1C[C@@H](F)CN1; Gly(cPr) = N[C@H](C(=O)O)C1CC1; X20 = O=C(C1(Cl)CC1)*
Quantity name: GI50 (µM)
Please respond with the number in µM and leave the unit unwritten.

Which measured GI50 value corresponds to CC(C)C[C@@H]1NC(=O)[C@@H](N(C)C(=O)[C@@H](NC(=O)[C@@H]2C[C@@H](F)CN2C(=O)C2(C(F)(F)F)CC(F)(F)C2)C2CC2)CCCCCCCN(C)C(=O)[C@H](Cc2cc(Cl)ccc2-c2ccc(N3C[C@@H](C)O[C@H](C)C3)cc2)N(C)C1=O [Example 389] ({cBuCO(3,3-F2-1-CF3)}-[Pro(trans-4-F)][Gly(cPr)][NMehhhLys(Me)]L[X74]; lactam 3-C) ?
0.02

Which measured GI50 value corresponds to CC(C)C[C@@H]1NC(=O)[C@@H](N(C)C(=O)[C@@H](NC(=O)[C@@H]2C[C@@H](F)CN2C(=O)C2(Cl)CC2)C2CC2)CCCCCCCN(C)C(=O)[C@H](Cc2cc(Cl)ccc2-c2ccc(N3CCOCC3)cc2)N(C)C1=O [Example 398] (X20-[Pro(trans-4-F)][Gly(cPr)][NMehhhLys(Me)]L[NMePhe(2-(4-MorPh),5-Cl)]; lactam 3-C) ?
0.14

Which measured GI50 value corresponds to CC(=O)N1CC=C(c2ccc(F)cc2C[C@H]2C(=O)N(C)CCCCC=CC[C@H](N(C)C(=O)[C@@H](NC(=O)[C@@H]3C[C@@H](F)CN3C(=O)C3(C(F)(F)F)CCC3)C3CC3)C(=O)N[C@@H](CC(C)C)C(=O)N2C)CC1 [Example 42] ?
0.07

Which measured GI50 value corresponds to Cc1nnc(-c2ccc(Cl)cc2C[C@H]2C(=O)NCCCCC=CC[C@H](N(C)C(=O)[C@@H](NC(=O)[C@@H]3C[C@@H](F)CN3C(=O)C3(C(F)(F)F)CC(F)(F)C3)C3CC3)C(=O)N[C@@H](CC(C)C)C(=O)N2C)o1 (single isomer, unassigned) [Example 118-P1] ?
0.18

Which measured GI50 value corresponds to CC(C)C[C@@H]1NC(=O)[C@@H](N(C)C(=O)[C@@H](NC(=O)[C@@H]2C[C@@H](F)CN2C(=O)C2(C(F)(F)F)CC(F)(F)C2)C2CC2)CCCCCCCN(C)C(=O)[C@H](Cc2cc(F)ccc2C2=CC3CCC(C2)N3C(=O)C(C)C)N(C)C1=O (stereo partly drawn) [Example 150] ({cBuCO(3,3-F2-1-CF3)}-[Pro(trans-4-F)][Gly(cPr)][NMehhhLys(Me)]L[X150]; lactam 3-C) ?
0.02

Which measured GI50 value corresponds to CC(C)C[C@@H]1NC(=O)[C@@H](N(C)C(=O)[C@@H](NC(=O)[C@@H]2C[C@@H](F)CN2C(=O)C2(C(F)(F)F)CC(F)(F)C2)C2CC2)CCCCCCCNC(=O)[C@H](Cc2cc(Cl)ccc2C2=C[C@H]3COC[C@@H](C2)N3C(=O)C(C)C)N(C)C1=O [Example 327] ({cBuCO(3,3-F2-1-CF3)}-[Pro(trans-4-F)][Gly(cPr)][NMe(hhhLys)]L[X10]; lactam 3-C) ?
0.01

Which measured GI50 value corresponds to CC(C)C[C@@H]1NC(=O)[C@@H](N(C)C(=O)[C@@H](NC(=O)[C@@H]2C[C@@H](F)CN2C(=O)C2(C(F)(F)F)CC(F)(F)C2)C2CC2)CCCCCCCNC(=O)[C@H](Cc2cc(Cl)cc3c2OCCO3)N(C)C1=O [Example 330] ({cBuCO(3,3-F2-1-CF3)}-[Pro(trans-4-F)][Gly(cPr)][NMe(hhhLys)]L[X33]; lactam 3-C) ?
0.01

Which measured GI50 value corresponds to CC(C)C[C@@H]1NC(=O)[C@@H](N(C)C(=O)[C@@H](NC(=O)[C@@H]2C[C@@H](F)CN2C(=O)C2(C(F)(F)F)CC(F)(F)C2)C2CC2)CC=CCCCCNC(=O)[C@H](Cc2cc(Cl)ccc2C2=CCN(S(C)(=O)=O)CC2)N(C)C1=O [Example 23] ?
0.18

Which measured GI50 value corresponds to CC(C)C[C@@H]1NC(=O)[C@@H](N(C)C(=O)[C@@H](NC(=O)[C@@H]2C[C@@H](F)CN2C(=O)C2(C(F)(F)F)CC(F)(F)C2)C2CC2)CCCCCCCN(C)C(=O)[C@H](Cc2cc(Cl)ccc2-c2ccc(-c3cnn(C4CCN(C)CC4)c3)cc2)N(C)C1=O [Example 380] ({cBuCO(3,3-F2-1-CF3)}-[Pro(trans-4-F)][Gly(cPr)][NMehhhLys(Me)]L[X39]; lactam 3-C) ?
0.02

Which measured GI50 value corresponds to CC(C)C[C@@H]1NC(=O)[C@@H](N(C)C(=O)[C@@H](NC(=O)[C@@H]2C[C@@H](F)CN2C(=O)C2(C(F)(F)F)CC(F)(F)C2)C2CC2)CCCCCCCN(C)C(=O)[C@H](Cc2cc(Cl)ccc2-c2cnn(C)c2)N(C)C1=O [Example 49] ({cBuCO(3,3-F2-1-CF3)}-[Pro(trans-4-F)][Gly(cPr)][NMehhhLys(Me)]L[X22]; lactam 3-C) ?
0.01

Which measured GI50 value corresponds to CC(C)C[C@@H]1NC(=O)[C@@H](N(C)C(=O)[C@@H](NC(=O)[C@@H]2C[C@@H](F)CN2C(=O)C2(C(F)(F)F)CC2)C2CC2)CC=CCCCCNC(=O)[C@H](Cc2cc(Cl)ccc2Cl)N(C)C1=O (single isomer, unassigned) [Example 5-P1] ?
0.39

Which measured GI50 value corresponds to COC(=O)CC[C@H](NC(=O)[C@@H]1C[C@@H](F)CN1C(=O)C1(C(F)(F)F)CC(F)(F)C1)C(=O)N(C)[C@H]1CCCCCCCN(C)C(=O)[C@H](Cc2cc(Cl)ccc2-c2ccc(N3CCOCC3)cc2)N(C)C(=O)[C@H](CC(C)C)NC1=O [Example 415] ({cBuCO(3,3-F2-1-CF3)}-[Pro(trans-4-F)]E(OMe)[NMehhhLys(Me)]L[NMePhe(2-(4-MorPh),5-Cl)]; lactam 3-C) ?
0.01
